assay: chemical genetic growth profiling, strain panel (AID 1159580);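 note: tested at 20 µM; growth read once vehicle control cultures reached saturation at 30 °C; 1 = growth at the plate median or of vehicle wells; lower values mean less growth of the strain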; details: S. cerevisiae deletion strains, growth OD, locus YOR136W, strain idh2, active compounds read low
Hit rate of the full screen: of about 5,500 compounds, about 2,000 (36%) were called active. Another 18% or so got no clear call; they are omitted. The list shows a part of the results.
OBSERVATION TYPE: normalized growth

CO[C@H]1CC(O[C@@H]2/C(C)=C/C[C@@H]3C[C@@H](C[C@]4(CC[C@H](C)[C@@H](C5CCCCC5)O4)O3)OC(=O)[C@@H]3C=C(C)/C(=N\O)[C@H]4OC/C(=C\C=C\[C@@H]2C)[C@]43O)O[C@@H](C)C1O (stereo partly specified) = 0.974 (inactive)

Hey, quick one: what's normalized growth for each of these?
1. CC(C)=CC1C(C(=O)O)C1(C)C (stereo unspecified)
2. O=C(O)c1cc(O)c2c(c1)[C@@H]([C@H]1c3cc(C(=O)O)cc(O)c3C(=O)c3c(O[C@H]4O[C@H](CO)[C@@H](O)[C@H](O)[C@H]4O)cccc31)c1cccc(O[C@H]3O[C@H](CO)[C@@H](O)[C@H](O)[C@H]3O)c1C2=O

Result:
0.979 (inactive)
1.01 (inactive)

Hey, quick one: what's normalized growth for each of these?
1. NS(=O)(=O)c1cc2c(cc1Cl)NC(CSCc1ccccc1)=NS2(=O)=O
2. CNNC
3. CCC(C)[C@H]1O[C@]2(C=C[C@@H]1C)C[C@@H]1C[C@@H](C/C=C(\C)[C@@H](OC3C[C@H](OC)C(O[C@H]4C[C@H](OC)[C@@H](O)[C@H](C)O4)[C@H](C)O3)[C@@H](C)/C=C/C=C3\CO[C@@H]4[C@H](O)C(C)=C[C@@H](C(=O)O1)[C@]34O)O2 (stereo partly specified)

Result:
0.979 (inactive)
0.994 (inactive)
0.936 (inactive)

----------
test: chemical genetic growth profiling, strain panel (AID 1159580); details: S. cerevisiae deletion strains, growth OD, locus YPL204W, strain HRR25
Among all 5,500 compounds or so, about 2,000 (36%) were called active. Roughly 18% stayed inconclusive and do not appear here. Cut-off read from the data, not from the text of the source: active = normalized growth mostly below about 0.91 (no sharp cut-off); inconclusive = no clear call, values can overlap the other calls; inactive = mostly above about 0.92. The list shows a part of the results.
Parameter call: string, one of active, inactive

The examples below pair each entry with its known result.
Cc1ccc(-n2cccc2)c(NS(=O)(=O)c2ccc(-c3ccno3)s2)c1 = inactive
N#CSCC(=O)c1ccccc1 = active
CCOC(=O)/C(C#N)=C(\Nc1ccc(C(=O)OCC)cc1)SC = inactive

Now, please, on to the next compound.
Problem: I'd appreciate the recorded outcome for "CSc1sc(C(=O)Sc2ccccc2)cc1S(=O)(=O)C(C)C" from this test.
Result: inactive

----------
assay: chemical genetic growth profiling, strain panel (AID 1159580); conditions: S. cerevisiae deletion strains, growth OD, locus YKL160W, strain elf1, active compounds read low
In all, about 5,500 compounds went through this assay and about 2,000 (36%) were called active. Another 18% or so got no clear call; they are omitted. Some of the results follow.
Threshold-based label: normalized growth under 1 gives Yes, normalized growth not under 1 gives No.

O=C(OOC(=O)c1ccccc1)c1ccccc1 = Yes
CC(C)C[C@@H](CN)CC(=O)O = No
CCCc1cc(=O)[nH]c(=S)[nH]1 = No
COC(=O)/C(=C1\OC(=O)C(c2ccccc2)=C1O)c1ccccc1 = Yes
CC1=CC(=O)c2c(O)cccc2C1=O = Yes
O=C(OCc1ccccc1)c1ccccc1 = Yes
CC(C)=CCc1c2c(c3occ(-c4ccc(O)c(O)c4)c(=O)c3c1O)C=CC(C)(C)O2 = Yes
CC1(C)CC2C1CC[C@]1(C)CCC3C(C(=O)O)CC(=O)O[C@@]32C1 (some centres not stated) = No

Problem: Lab note: normalized growth threshold 1. Does this compound come in strictly under it? CC12CCC3C(CC3(C)C)C(C)(CCC1=O)O2 (configuration not stated)
Result: No

----------
assay: chemical genetic growth profiling, strain panel (AID 1159580);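 note: tested at 20 µM; growth read once vehicle control cultures reached saturation at 30 °C; 1 = growth at the plate median or of vehicle wells; lower values mean less growth of the strain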; conditions: S. cerevisiae deletion strains, growth OD, locus YDR335W, strain msn5, active compounds read low
The whole screen tested about 5,500 compounds, of which about 2,000 (36%) were called active. Not shown: some 18% with an inconclusive outcome. This is one part of the list.
Assign normalized growth to each entry below.
One number for each entry.

O=C(O)C1=CCCNC1 = 0.995
O=C(OCc1ccccc1)c1ccccc1 = 0.95
O=C1NC(O)=NC1(c1ccccc1)c1ccccc1 = 1.02

Hey, quick one: what's normalized growth for each of these?
1. CC(C)=CCCC(C)[C@@H]1CC[C@]2(C)C3=C(CC[C@@]12C)C1(C)CC[C@H](O)C(C)(C)C1CC3 (some centres not stated)
2. CC12CCC3C(CC3(C)C)C(C)(CCC1=O)O2 (configuration not stated)
3. CC(=O)O[C@H]1CC[C@@]2(C)C(=CC(=O)C3C4CCC(C(C)CCCC(C)C)[C@@]4(C)CCC32)C1 (some centres not stated)
4. Cc1cn[nH]c1
5. CC(C)CCCC(C)C1CCC2C3CC(=O)[C@H]4C[C@@H](O)CC[C@]4(C)C3CC[C@]12C (some centres not stated)
6. CC(CCc1ccccc1)NCC(O)c1ccc(O)c(C(N)=O)c1 (configuration not stated)
7. COC(=O)c1c(C)c2c(c(C)c1O)OC(=O)c1c(C)c(Cl)c(O)c(Cl)c1O2
8. C[C@H]1c2cccc(O)c2C(O)=C2C(=O)[C@]3(O)C(O)=C(C(N)=O)C(=O)[C@@H](N(C)C)[C@@H]3[C@@H](O)[C@@H]21

Result:
1. 1.02
2. 1
3. 0.993
4. 1.02
5. 1.02
6. 1
7. 0.939
8. 0.988

Hey, quick one: what's normalized growth for each of these?
1. CN(C)[C@@H]1C(=O)C(C(N)=O)=C(O)[C@@]2(O)C(=O)C3=C(O)c4c(O)ccc(Cl)c4[C@@H](O)[C@H]3C[C@@H]12
2. CC(C)CCCC(C)C1CCC2C3C[C@@H](O)[C@@]4(O)C[C@@H](O)CC[C@]4(C)C3CC[C@]12C (some centres not stated)
3. CC(=O)O[C@H]1CCC2(C)C3=C(CCC2C1(C)C)[C@]1(C)CCC(C(C)CCC=C(C)C)[C@@]1(C)CC3 (some centres not stated)

Result:
1. 0.98
2. 1
3. 1.01

Hey, quick one: what's normalized growth for each of these?
1. Cc1scc2c1N(C(=O)CN1CCN(C)CC1)c1ccccc1NC2=O
2. CCCc1cc(=O)[nH]c(=S)[nH]1
3. OC[C@H]1O[C@@H](O[C@H]2[C@H](O)[C@@H](O)[C@@H](O)O[C@@H]2CO)[C@H](O)[C@@H](O)[C@@H]1O
4. CC(C)c1ccc2c(c1)CCC1[C@](C)(CN)CCC[C@]21C (some centres not stated)

Result:
0.955
1.01
1.01
0.969

Hey, quick one: what's normalized growth for each of these?
1. OC[C@H]1O[C@@](CO)(O[C@@H]2O[C@H](CO)[C@@H](O)[C@H](O)[C@H]2O)[C@@H](O[C@@H]2O[C@H](CO)[C@@H](O)[C@H](O)[C@H]2O)[C@@H]1O
2. CC(CCC(=O)O)[C@H]1CCC2C3CC[C@@H]4C[C@H](O)CC[C@]4(C)C3C=C[C@@]21C (some centres not stated)
3. C[C@H](CCC(=O)O)[C@H]1CCC2C3C(=O)CC4CC(=O)CC[C@]4(C)C3CC(=O)[C@@]21C (some centres not stated)
4. CC(C)(C)NCC(O)c1ccc(O)c(CO)c1 (configuration not stated)

Result:
1: 1.02; 2: 0.969; 3: 0.978; 4: 1.02

----------
test: chemical genetic growth profiling, strain panel (AID 1159580);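 note: tested at 20 µM; growth read once vehicle control cultures reached saturation at 30 °C; 1 = growth at the plate median or of vehicle wells; lower values mean less growth of the strain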; conditions: S. cerevisiae deletion strains, growth OD, locus YDL185W, strain tfp1, active compounds read low
The whole screen tested about 5,500 compounds, of which about 2,000 (36%) were called active. Another 18% or so got no clear call; they are omitted. This is one part of the list.
Threshold-based label: normalized growth under 1 gives Condition met, normalized growth not under 1 gives Condition not met.

The examples below pair each entry with its known result.
CC(C)=CC1C(C(=O)O)C1(C)C (stereo unspecified) = Condition met
COc1ccc(C2Sc3ccccc3N(CCN(C)C)C(=O)C2OC(C)=O)cc1 (stereo unspecified) = Condition not met

Now, please, on to the next compound.
Problem: Lab note: normalized growth threshold 1. Does this compound come in strictly under it? "CC(C)=CCc1c2c(c3occ(-c4ccc(O)c(O)c4)c(=O)c3c1O)C=CC(C)(C)O2"
Result: Condition met

----------
assay: chemical genetic growth profiling, strain panel (AID 1159580);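 note: tested at 20 µM; growth read once vehicle control cultures reached saturation at 30 °C; 1 = growth at the plate median or of vehicle wells; lower values mean less growth of the strain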; conditions: S. cerevisiae deletion strains, growth OD, locus YKL085W, strain MDH1 (second series), active compounds read low
The campaign covered roughly 5,500 compounds. About 2,000 (36%) were called active. Not shown: some 18% with an inconclusive outcome. Some of the results follow.
OBSERVATION TYPE: normalized growth
Answers are plain numbers.

COC(=O)/C(=C1\OC(=O)C(c2ccccc2)=C1O)c1ccccc1 = 0.965
CC(C)CCCC(C)[C@H]1CCC2C3C(=O)C=C4C[C@@H](O)CC[C@]4(C)C3CC[C@@]21C (some centres undefined) = 1.03
COc1ccc([C@@H]2CC(=O)c3c(O)cc(O[C@@H]4O[C@H](CO[C@H]5O[C@@H](C)[C@H](O)[C@@H](O)[C@H]5O)[C@@H](O)[C@H](O)[C@H]4O)cc3O2)cc1O = 0.996

Attention now turns to another entry.
The recorded normalized growth for entry "COc1cc(C/C=C/c2ccccc2)c(OC)cc1O" equals 0.965
